Ref: patent US10919841B2

Exercise: state measured IC50 for each of the molecules provided.
target: (h)NET (Homo sapiens, UniProt P23975); assay: block of [3H]norepinephrine reuptake in HEK-(h)NET cells; details: read-out: Uptake, IC50 [3H]NE; mean ± standard error of three independent experiments
Sequence (P23975 whole entry): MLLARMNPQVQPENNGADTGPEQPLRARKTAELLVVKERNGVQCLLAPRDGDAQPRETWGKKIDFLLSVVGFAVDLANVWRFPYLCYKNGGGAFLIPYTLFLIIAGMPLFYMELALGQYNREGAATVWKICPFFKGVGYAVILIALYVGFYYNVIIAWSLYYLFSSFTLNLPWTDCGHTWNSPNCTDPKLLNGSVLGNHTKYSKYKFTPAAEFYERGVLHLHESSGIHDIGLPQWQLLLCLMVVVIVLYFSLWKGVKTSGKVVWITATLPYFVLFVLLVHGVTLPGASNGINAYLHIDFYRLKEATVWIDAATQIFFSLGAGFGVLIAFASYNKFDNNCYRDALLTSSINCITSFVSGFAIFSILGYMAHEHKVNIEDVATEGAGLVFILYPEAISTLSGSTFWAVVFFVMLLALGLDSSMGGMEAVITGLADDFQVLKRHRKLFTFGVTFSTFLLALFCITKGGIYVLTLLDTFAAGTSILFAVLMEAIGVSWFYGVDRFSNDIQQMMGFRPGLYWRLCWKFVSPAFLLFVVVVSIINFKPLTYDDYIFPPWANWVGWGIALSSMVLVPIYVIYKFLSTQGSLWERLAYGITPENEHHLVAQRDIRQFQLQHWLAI
Note: unit µM is implicit; provide only the numeric part.

For the molecule shown here, CCCCC(NC(C)(C)C)C(=O)c1cccc(Cl)c1 (centres unmarked) , give the reported IC50. 0.4

Quick one: IC50 of CC(C(=O)c1cccc(Cl)c1)N1CCCCC1 (centres unmarked) ? 4.8

GET /values?readout=IC50&item= CC(NC(C)(C)C)C(=O)c1ccccc1 (centres unmarked) 8.7

What value of measured IC50 is listed for CC(NC(C)(C)C)C(=O)c1cccc(Br)c1 (centres unmarked) ? 6.5

GET /values?readout=IC50&item= CCCC(NC(C)(C)C)C(=O)c1cccc(Cl)c1 (centres unmarked) 0.472

----------
Consider the following compounds; for each one, report its ED50.
test system: rats; experiment: cocaine discrimination time-course study, oral administration; details: Rattus norvegicus, po, 0.75 h
Give just the numeric value; mg/kg need not be written.

Observed ED50 on rats for CCCCC(NC(C)(C)C)C(=O)c1cccc(Cl)c1 (stereo not drawn) , please. 37.9

I'm curious: which ED50 was measured for CC(NC(C)(C)C)C(=O)c1ccccc1 (stereo not drawn) tested on rats? 25.6

Lookup: ED50 / rats / CCCC(NC(C)(C)C)C(=O)c1ccc(Cl)c(Cl)c1 (stereo not drawn) 17.3
